Lab note: Ki readings collected with 5-HT1A receptor (Homo sapiens (Human)) for the following molecules.
assay.endpoint: Ki (nM)

Solved entries:
{"columns": ["smiles.structure", "Ki, nM"],
 "data": [
  ["COc1cccc(CCN2CCN(c3cccc4cc(C(=O)N(C)C)oc34)CC2)n1", 1.3],
  ["N#Cc1ccc(CNC(=O)c2cc3cccc(N4CCN(CCc5ccccn5)CC4)c3o2)cn1", 1.1]
]}

I: Cc1ccc(CCN2CCN(c3cccc4cc(C(=O)N(C)C)oc34)CC2)nc1
II: CN(Cc1cccc(S(C)(=O)=O)c1)C(=O)c1cc2cccc(N3CCN(CCc4ccccn4)CC3)c2o1
Ask | Task for the reader: decide whether I or II has the larger Ki. In your reply, give the label of the chosen option.
Reply | II

* * *

5-HT1A receptor (Homo sapiens (Human), UniProt P08908) data, read-out Ki
Sequence (P08908 whole entry): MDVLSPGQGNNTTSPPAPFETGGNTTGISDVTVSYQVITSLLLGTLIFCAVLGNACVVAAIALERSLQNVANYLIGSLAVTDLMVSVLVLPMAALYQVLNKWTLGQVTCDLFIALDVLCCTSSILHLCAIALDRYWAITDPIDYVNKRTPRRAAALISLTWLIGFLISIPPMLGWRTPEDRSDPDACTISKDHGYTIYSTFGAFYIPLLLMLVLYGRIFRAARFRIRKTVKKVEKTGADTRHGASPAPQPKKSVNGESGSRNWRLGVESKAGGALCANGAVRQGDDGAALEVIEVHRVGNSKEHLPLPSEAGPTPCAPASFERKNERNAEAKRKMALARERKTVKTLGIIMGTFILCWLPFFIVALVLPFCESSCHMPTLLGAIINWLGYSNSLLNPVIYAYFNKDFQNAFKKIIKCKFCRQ
assay.endpoint: Ki (nM)

Guide cases for Ki, answers given:
{"columns": ["smiles.structure", "assay.endpoint", "quantity.unit", "experimental.value"],
 "data": [
  ["CN(C)C(=O)c1cc2cccc(N3CCN(CCc4ccc(F)cn4)CC3)c2o1", "Ki", "nM", 0.22],
  ["COc1cccnc1N1CCC(NC(=O)c2cc3cccc(N4CCN(CCc5ccccn5)CC4)c3o2)CC1", "Ki", "nM", 0.42],
  ["O=C(NCc1cccc(O)c1)c1cc2cccc(N3CCN(CCc4ccccn4)CC3)c2o1", "Ki", "nM", 0.23]
]}

a: CS(=O)(=O)c1ccc(CNC(=O)c2cc3cccc(N4CCN(CCc5ccccn5)CC4)c3o2)cc1
b: O=C(c1cc2cccc(N3CCN(CCc4ccccn4)CC3)c2o1)N1CCCC1
c: CC(=O)c1ccc(CCN2CCN(c3cccc4cc(C(=O)N(C)C)oc34)CC2)nc1
d: CN(Cc1cccnc1)C(=O)c1cc2cccc(N3CCN(CCc4ccccn4)CC3)c2o1
e: CNC(=O)c1cc2cccc(N3CCN(CCc4ccccn4)CC3)c2o1
Ask | Hey, quick one: sort these by Ki, largest value first please. I would appreciate it if you listed the labels in the requested order.
Reply | d, b, c, a, e

* * *

Molecular target: 5-HT1B receptor (Homo sapiens (Human))
Sequence (P28222 whole entry): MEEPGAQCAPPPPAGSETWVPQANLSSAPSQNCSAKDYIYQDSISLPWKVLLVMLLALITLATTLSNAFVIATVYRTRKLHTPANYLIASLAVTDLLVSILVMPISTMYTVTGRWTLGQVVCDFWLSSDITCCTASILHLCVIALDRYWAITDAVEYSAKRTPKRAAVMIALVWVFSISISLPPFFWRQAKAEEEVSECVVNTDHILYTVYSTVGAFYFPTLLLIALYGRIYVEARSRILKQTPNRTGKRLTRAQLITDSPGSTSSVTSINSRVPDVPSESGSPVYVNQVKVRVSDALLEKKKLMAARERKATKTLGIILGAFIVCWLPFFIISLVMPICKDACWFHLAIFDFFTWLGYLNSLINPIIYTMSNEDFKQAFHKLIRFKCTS
Experiment: 5-HT1B receptor competition binding assay (SPA, [3H]-GR125743)
Settings: membranes of CHO cells expressing 5-HT1B receptors; radioligand [3H]-GR125743 0.15-0.2 nM
Source text: Assays that were used to measure affinity of the compounds of the present invention for 5-HT1A and 5-HT1B receptors are described in J. Recept Signal Transduct. Res. 22:483-495 (2002) and Naunyn-Schmiedeberg's Arch Pharmacol. 356:328-334 (1997) and incorporated by reference herein. These assays were be used with some modifications: […]
pKi: −log10 of the molar value.
assay.endpoint: pKi

Sample answers from the record:
{"columns": ["compound", "pKi"],
 "data": [
  ["COc1cccc(CCN2CCN(c3cccc4cc(C(=O)N(C)C)oc34)CC2)n1 [Example 46]", 8.85],
  ["Cn1cnc(CNC(=O)c2cc3cccc(N4CCN(CCc5ccccn5)CC4)c3o2)c1 [Example 5]", 7.43],
  ["O=C(NC1CC1)c1cc2cccc(N3CCN(CCc4ccccn4)CC3)c2o1 [Example 13]", 8.19],
  ["O=C(NC1CCN(c2ccccc2)CC1)c1cc2cccc(N3CCN(CCc4ccccn4)CC3)c2o1 [Example 3]", 9.28]
]}

P: O=C(c1cc2cccc(N3CCN(CCc4ccccn4)CC3)c2o1)N1CC(Oc2cccnc2)C1 [Example 36]
Q: Cc1ccc(CCN2CCN(c3cccc4cc(C(=O)N(C)C)oc34)CC2)nc1 [Example 40]
Ask | I'm curious, which of these has a smaller pKi number: P or Q ? Record your answer as the label of the chosen record.
Reply | Q
(Q: 8.89, P: 9.34)

P: O=C(NC1CC(F)(F)C1)c1cc2cccc(N3CCN(CCc4ccccn4)CC3)c2o1 [Example 14]
Q: CN(C)C(=O)c1cc2cc(F)cc(N3CCN(CCc4ccccn4)CC3)c2o1 [Example 50]
Ask | Problem: Given the entries P and Q , determine which has the lower reported pKi. Indicate your choice by writing its label.
Reply | P
(P: 7.38, Q: 8.09)

* * *

Lab note: pKi readings collected with 5-HT1B receptor (Homo sapiens (Human)) for the following molecules.
pKi: −log10 of the molar value.
assay.endpoint: pKi

Guide cases for pKi, answers given:
{"columns": ["smiles.structure", "pKi"],
 "data": [
  ["COc1ccnc(CCN2CCN(c3cccc4cc(C(=O)N(C)C)oc34)CC2)c1", 7.18],
  ["O=C(NC1CCN(c2ncccc2Cl)CC1)c1cc2cccc(N3CCN(CCc4ccccn4)CC3)c2o1", 9.55],
  ["CC(=O)c1ccc(CCN2CCN(c3cccc4cc(C(=O)N(C)C)oc34)CC2)nc1", 8.70],
  ["O=C(c1cc2cccc(N3CCN(CCc4ccccn4)CC3)c2o1)N1CCCC1", 8.36]
]}

a: COc1ccc(CNC(=O)c2cc3cccc(N4CCN(CCc5ccccn5)CC4)c3o2)cc1
b: O=C(NCc1cccc(O)c1)c1cc2cccc(N3CCN(CCc4ccccn4)CC3)c2o1
c: COc1cc(N2CCN(CCc3ccccn3)CC2)c2oc(C(=O)N(C)C)cc2c1
d: CN(C)C(=O)c1cc2cccc(N3CCN(CCc4ccccn4)CC3)c2o1
Ask | With regard to pKi, arrange the entries in ascending order, please. Give the labels in the order requested.
Reply | c, b, d, a

* * *

Assay read-out Ki; system under study: 5-HT1B receptor (Homo sapiens (Human)).
assay.endpoint: Ki (nM)

// worked examples, Ki included
{"columns": ["molecule", "experimental.value"],
 "data": [
  ["CN(C)C(=O)c1cc2c(Br)ccc(N3CCN(CCc4ccccn4)CC3)c2o1 [Example 53]", 11],
  ["Cc1ccc(C(C)NC(=O)c2cc3cccc(N4CCN(CCc5ccccn5)CC4)c3o2)cn1 (centres unmarked) [Example 33]", 44],
  ["COc1cccc(CNC(=O)c2cc3cccc(N4CCN(CCc5ccccn5)CC4)c3o2)c1 [Example 26]", 2.3],
  ["O=C(c1cc2cccc(N3CCN(CCc4ccccn4)CC3)c2o1)N1CCN(c2nccs2)CC1 [Example 23]", 1.4]
]}

A: CNC(=O)c1cc2cccc(N3CCN(CCc4ccccn4)CC3)c2o1 [Example 12]
B: O=C(NC1(c2ccccn2)CC1)c1cc2cccc(N3CCN(CCc4ccccn4)CC3)c2o1 [Example 27]
C: CS(=O)(=O)c1ccc(CNC(=O)c2cc3cccc(N4CCN(CCc5ccccn5)CC4)c3o2)cc1 [Example 4]
D: COc1cccnc1N1CCC(NC(=O)c2cc3cccc(N4CCN(CCc5ccccn5)CC4)c3o2)CC1 [Example 24]
Ask | Please list these molecules in decreasing order of Ki. Use the labels to give the ranking in the order requested.
Reply | B, C, A, D
(B: 35 nM, C: 1.8 nM, A: 0.88 nM, D: 0.56 nM)

* * *

// 5-HT1A receptor (Homo sapiens (Human), UniProt P08908) pKi records
pKi: −log10 of the molar value.
assay.endpoint: pKi

{"columns": ["molecule", "pKi"],
 "data": [
  ["CC(NC(=O)c1cc2cccc(N3CCN(CCc4ccccn4)CC3)c2o1)c1ccccn1 (stereo not shown) [Example 7]", 9.23]
]}

A: O=C(NC1(c2ccccn2)CC1)c1cc2cccc(N3CCN(CCc4ccccn4)CC3)c2o1 [Example 27]
B: N#Cc1ccc(CNC(=O)c2cc3cccc(N4CCN(CCc5ccccn5)CC4)c3o2)cc1 [Example 9]
C: O=C(NCc1ccccn1)c1cc2cccc(N3CCN(CCc4ccccn4)CC3)c2o1 [Example 1]
Ask | Hi! Can you put these in order of pKi, lowest number first? Put the labels in the order asked and list them.
Reply | A, C, B
(A: 8.64, C: 8.89, B: 9.36)

* * *

pKi: −log10 of the molar value.
// each record: one item and its pKi for 5-HT1A receptor (Homo sapiens (Human))
assay.endpoint: pKi

1: COc1ccc(CNC(=O)c2cc3cccc(N4CCN(CCc5ccccn5)CC4)c3o2)cc1 [Example 28]
2: Cn1cnc(CNC(=O)c2cc3cccc(N4CCN(CCc5ccccn5)CC4)c3o2)c1 [Example 5]
Ask | Which has the smaller recorded pKi, 1 or 2 ? Select an item and report its label.
Reply | 2
(2: 8.66, 1: 9.07)

* * *

Dear all, this message contains pKi results, target or system UniProt:P28222.
pKi: −log10 of the molar value.
assay.endpoint: pKi

{"columns": ["smiles.structure", "experimental.value"],
 "data": [
  ["CC(=O)N1CCc2cc(CCN3CCN(c4cccc5cc(C(=O)N(C)C)oc45)CC3)ccc21", 8.80]
]}

a: CC(=O)N1CCc2cc(CCN3CCN(c4cc(F)cc5cc(C(=O)N(C)C)oc45)CC3)ccc21
b: O=C(Nc1ccc(N2CCOCC2)cc1)c1cc2cccc(N3CCN(CCc4ccccn4)CC3)c2o1
Ask | For the pair a and b , which entry has the numerically smaller recorded pKi? Lab note: record the label of whichever item you select.
Reply | a

Where do these numbers come from? They come from patent US8859534B2.
